Source listed as DBAASP.

# reported MIC; entries follow
# Tested on: Candida albicans NCPF 1467

Examples with answers:
COMPOUND: CC[C@H](C)[C@H](NC(=O)[C@H](C)NC(=O)CNC(=O)[C@H](Cc1ccccc1)NC(=O)[C@@H](N)Cc1ccccc1)C(=O)N[C@@H](C)C(=O)N[C@@H](C)C(=O)N[C@@H](C)C(=O)N[C@@H](CC(C)C)C(=O)N1CCC[C@H]1C(=O)N[C@@H](Cc1cnc[nH]1)C(=O)N[C@H](C(=O)N[C@H](C(=O)N[C@@H](CO)C(=O)N[C@@H](C)C(=O)N[C@H](C(=O)N[C@@H](CCCCN)C(=O)N[C@@H](CC(N)=O)C(=O)N[C@@H](C)C(=O)N[C@@H](CC(C)C)C(=O)O)[C@@H](C)CC)[C@@H](C)CC)C(C)C [FFGAIAAALPHVISAIKNAL]
MIC: ≥ 120 µM
//
COMPOUND: CC(C)C[C@H](NC(=O)[C@H](C)NC(=O)[C@H](C)NC(=O)[C@H](CC(C)C)NC(=O)[C@H](CC(N)=O)NC(=O)[C@@H](NC(=O)[C@@H](NC(=O)[C@H](CC(C)C)NC(=O)[C@H](CCCCN)NC(=O)[C@H](CCCCN)NC(=O)[C@@H](NC(=O)[C@@H](NC(=O)[C@@H](NC(=O)[C@H](CC(C)C)NC(=O)[C@H](Cc1ccccc1)NC(=O)[C@@H](N)CO)[C@@H](C)O)[C@@H](C)O)C(C)C)C(C)C)[C@@H](C)O)C(N)=O [SFLTTVKKLVTNLAAL]
MIC: 16 µM
//
COMPOUND: CC[C@H](C)[C@H](NC(=O)[C@H](CC(C)C)NC(=O)[C@H](CO)NC(=O)[C@@H](NC(=O)[C@H](CC(C)C)NC(=O)[C@H](C)NC(=O)[C@@H]1CCCN1C(=O)[C@@H](NC(=O)[C@H](CC(C)C)NC(=O)[C@H](Cc1ccccc1)NC(=O)[C@@H]1CCCN1C(=O)[C@H](CC(C)C)NC(=O)[C@@H](N)Cc1ccccc1)[C@@H](C)CC)[C@@H](C)O)C(=O)N[C@@H](CO)C(=O)N[C@@H](CO)C(=O)N[C@@H](CC(C)C)C(N)=O [FLPFLIPALTSLISSL]
MIC: ≥ 150 µM

input: Enter reported MIC observed with Candida albicans NCPF 1467 for CC[C@H](C)[C@H](NC(=O)CNC(=O)[C@@H]1CCCN1C(=O)[C@H](CC(C)C)NC(=O)[C@@H](N)Cc1ccccc1)C(=O)N[C@@H](CC(C)C)C(=O)N[C@@H](CCCCN)C(=O)N[C@H](C(=O)N[C@@H](C)C(=O)N[C@@H](C)C(=O)N[C@@H](CCCCN)C(N)=O)C(C)C [FLPGILKVAAK]
output: ≥ 512 µM

input: Enter reported MIC observed with Candida albicans NCPF 1467 for CC[C@H](C)[C@H](NC(=O)CNC(=O)[C@@H]1CCCN1C(=O)[C@H](CC(C)C)NC(=O)[C@H](C)NC(=O)[C@H](CC(N)=O)NC(=O)[C@H](CCCCN)NC(=O)[C@H](Cc1ccccc1)NC(=O)[C@H](C)NC(=O)[C@H](CO)NC(=O)[C@H](CC(C)C)NC(=O)[C@@H](NC(=O)CN)C(C)C)C(=O)N[C@@H](CCSC)C(=O)N[C@@H](CCCCN)C(=O)N[C@H](C(=O)N[C@H](C(=O)N[C@H](C(N)=O)C(C)C)[C@@H](C)CC)[C@@H](C)CC [GVLSAFKNALPGIMKIIV]
output: 8.55 µM

input: Enter reported MIC observed with Candida albicans NCPF 1467 for CC[C@H](C)[C@H](NC(=O)[C@H](CO)NC(=O)CNC(=O)CNC(=O)[C@@H](NC(=O)[C@H](CC(C)C)NC(=O)[C@H](CO)NC(=O)[C@@H]1CCCN1C(=O)[C@@H](NC(=O)[C@H](CC(C)C)NC(=O)[C@H](CO)NC(=O)[C@H](CC(C)C)NC(=O)[C@@H](N)Cc1ccccc1)[C@@H](C)CC)C(C)C)C(=O)N[C@@H](CO)C(=O)N[C@@H](C)C(=O)N[C@@H](Cc1ccccc1)C(=O)N[C@@H](CCCCN)C(=O)O [FLSLIPSLVGGSISAFK]
output: ≥ 160 µM

====

# System: Candida albicans ATCC 10231
# ASSAY_NOTES: ≥ marks a high value that may be exact or a test limit, other limits are often not marked, values filed in µg/mL are converted to µM
MEASURED_ENDPOINT: MIC (µM)
Give just the number in µM; leave the unit off.

MOLECULE: CC[C@H](C)[C@H](NC(=O)[C@H](C)NC(=O)[C@H](CCCCN)NC(=O)[C@@H](NC(=O)[C@@H](NC(=O)[C@H](CC(=O)O)NC(=O)[C@H](Cc1ccccc1)NC(=O)[C@H](CC(C)C)NC(=O)CN)[C@@H](C)CC)[C@@H](C)CC)C(=O)N[C@@H](C)C(=O)N[C@@H](CCC(=O)O)C(=O)N[C@@H](CO)C(=O)N[C@@H](Cc1ccccc1)C(N)=O [GLFDIIKAIAESF]
UNIT_OF_MEASUREMENT: µM
VALUE_OBSERVED: 45
--
MOLECULE: NCCCC[C@@H]1NC(=O)[C@H](CCCCN)NC(=O)[C@H](Cc2cnc[nH]2)NC(=O)[C@H](CCCCN)NC(=O)[C@@H](NC(=O)[C@H](CC(N)=O)NC(=O)[C@@H](N)CC(N)=O)CSSC[C@@H](C(=O)O)NC(=O)CNC(=O)[C@H](CO)NC(=O)CNC1=O [NNCKHKKGSGC]
UNIT_OF_MEASUREMENT: µM
VALUE_OBSERVED: 42.5

Proceed to the following item.
input: MIC for CC[C@H](C)[C@H](NC(=O)CNC(=O)[C@H](C)NC(=O)[C@@H](NC(=O)[C@H](CC(C)C)NC(=O)[C@H](CCCCN)NC(=O)[C@@H](NC(=O)[C@@H](N)CC(C)C)C(C)C)C(C)C)C(=O)N[C@@H](CCCCN)C(=O)N[C@@H](CCCCN)C(=O)N[C@@H](Cc1ccccc1)C(=O)N[C@@H](CC(C)C)C(=O)N[C@@H](CCCCN)C(=O)N[C@@H](Cc1c[nH]c2ccccc12)C(=O)N[C@@H](CCCCN)C(N)=O [LVKLVAGIKKFLKWK] ?
output: 145

====

Staphylococcus aureus measurements of MIC, listed per entry.
Give just the number in µM; leave the unit off.

COMPOUND: CC(C)C[C@H](NC(=O)[C@H](CCCCN)NC(=O)[C@H](Cc1ccccc1)NC(=O)[C@H](CC(C)C)NC(=O)[C@@H](NC(=O)[C@H](CCCCN)NC(=O)[C@@H](N)CCCCN)C(C)C)C(=O)N[C@@H](CCCCN)C(=O)N[C@@H](Cc1ccccc1)C(=O)N[C@@H](CCCCN)C(N)=O [KKVLFKLKFK]
MEASURED_ENDPOINT: MIC
UNIT_OF_MEASUREMENT: µM
VALUE_OBSERVED: 19.6

Proceed to the following item.
input: MIC for CC[C@H](C)[C@H](NC(=O)CN)C(=O)N[C@@H](CC(C)C)C(=O)N[C@@H](CO)C(=O)N[C@@H](CO)C(=O)N[C@@H](Cc1c[nH]c2ccccc12)C(=O)N[C@@H](CC(C)C)C(=O)N[C@@H](CCCCN)C(=O)N[C@@H](CCCCN)C(=O)N[C@@H](CC(C)C)C(=O)N[C@@H](CCCCN)C(=O)N[C@@H](CCCCN)C(=O)N[C@H](C(=O)N[C@H](C(=O)N[C@@H](C)C(=O)N[C@@H](CCCCN)C(N)=O)[C@@H](C)CC)[C@@H](C)CC [GILSSWLKKLKKIIAK] ?
output: 16

====

# reported MIC; entries follow
# Test system: Pseudomonas aeruginosa ATCC 27853
# ASSAY_NOTES: ≥ marks a high value that may be exact or a test limit, other limits are often not marked, values filed in µg/mL are converted to µM

ITEM_SMILES: CSCC[C@H](NC(=O)[C@H](CCCCN)NC(=O)[C@H](CCCCN)NC(=O)[C@H](CCCCN)NC(=O)[C@@H](N)CCCN=C(N)N)C(=O)N[C@@H](CCCCN)C(=O)N[C@@H](CCCCN)C(=O)N[C@@H](C)C(=O)N[C@@H](CC(C)C)C(=O)N[C@@H](CCC(N)=O)C(=O)N[C@@H](Cc1ccc(O)cc1)C(N)=O
MIC: > 100 µM

input: MIC for `CC[C@H](C)[C@H](NC(=O)[C@H](C)NC(=O)[C@H](CC(N)=O)NC(=O)[C@H](CCCCN)NC(=O)[C@@H](NC(=O)CNC(=O)[C@H](CCC(=O)O)NC(=O)[C@H](Cc1c[nH]c2ccccc12)NC(=O)[C@H](CC(C)C)NC(=O)[C@H](CCCCN)NC(=O)CNC(=O)[C@H](Cc1c[nH]c2ccccc12)NC(=O)[C@H](Cc1ccccc1)NC(=O)CN)C(C)C)C(N)=O` ?
output: > 32 µM
